Hello, the source for this data is patent US20180030151A1, in case you need it.

target: recombinant human TFPI (tissue factor pathway inhibitor) (human, UniProt P10646 29-304); assay: cell-based or functional assay
quantity: % of Normalized, TF/FVIIa/FX complex assay, Ab 1.56 nM

binder="clone 1202 (antibody, V domains shown, scFv on yeast at selection; human IgG4/kappa IgG as purified; also called No. 1202 antibody) VH: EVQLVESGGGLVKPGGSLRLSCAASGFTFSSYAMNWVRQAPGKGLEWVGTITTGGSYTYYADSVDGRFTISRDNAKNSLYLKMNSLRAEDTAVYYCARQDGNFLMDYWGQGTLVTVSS VL: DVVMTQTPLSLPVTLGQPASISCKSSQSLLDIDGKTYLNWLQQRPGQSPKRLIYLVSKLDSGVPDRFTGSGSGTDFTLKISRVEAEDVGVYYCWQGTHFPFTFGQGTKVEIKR" test_result=5.1%
binder="clone 13 (antibody, V domains shown) VH: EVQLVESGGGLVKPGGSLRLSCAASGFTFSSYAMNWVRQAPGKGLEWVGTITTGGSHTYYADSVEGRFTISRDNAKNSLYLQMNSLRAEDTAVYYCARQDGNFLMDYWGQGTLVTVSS VL: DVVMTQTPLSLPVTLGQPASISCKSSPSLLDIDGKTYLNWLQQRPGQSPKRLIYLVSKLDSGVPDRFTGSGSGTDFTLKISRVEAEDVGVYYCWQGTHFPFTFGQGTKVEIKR" test_result=5.4%
binder="clone 1023 (antibody, V domains shown, scFv on yeast at selection; human IgG4/kappa IgG as purified) VH: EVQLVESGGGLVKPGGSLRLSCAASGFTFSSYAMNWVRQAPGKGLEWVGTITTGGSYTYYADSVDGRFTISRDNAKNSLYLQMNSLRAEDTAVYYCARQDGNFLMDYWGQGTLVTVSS VL: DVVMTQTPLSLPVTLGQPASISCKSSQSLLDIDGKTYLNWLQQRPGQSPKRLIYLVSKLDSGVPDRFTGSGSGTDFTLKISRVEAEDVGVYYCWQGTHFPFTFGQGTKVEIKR" test_result=4.8%
